tested on: L6; experiment: Cytotoxicity against rat L6 cells; type: cell-based
compounds and their reported pIC50
By convention, pIC50 is the negative base-10 log of a molar concentration.

Worked examples follow.
smiles.data	recorded.value
O=[N+]([O-])c1ncn(CCCNS(=O)(=O)c2cc(C(F)(F)F)ccc2C(F)(F)F)n1	3.94
O=[N+]([O-])c1ncn(CCCNS(=O)(=O)c2cc(C(F)(F)F)cc(C(F)(F)F)c2)n1	3.96
O=C(NCCCCn1cnc([N+](=O)[O-])n1)c1ccc2ccccc2n1	4.04
O=[N+]([O-])c1ncn(CCCNS(=O)(=O)c2ccc(-c3ccccc3)cc2)n1	4.30
O=C(Cn1cnc([N+](=O)[O-])n1)NCc1ccccc1	3.46

Ask | Please look up its pIC50: O=[N+]([O-])c1ncn(CCCCNS(=O)(=O)c2ccc(OC(F)(F)F)cc2)n1
Reply | 3.95

Ask | Suppose we examine the compound O=C(NCCCCn1cnc([N+](=O)[O-])n1)c1ccc(C(F)(F)F)cc1 ; what pIC50 value has been reported?
Reply | 3.98

Ask | Consider the compound O=[N+]([O-])c1ncn(CCCNS(=O)(=O)c2ccc(C(F)(F)F)cc2)n1 and give its measured pIC50.
Reply | 3.63
